Items are presented alongside their recorded folding stability dG unfold.
- run_description: folding stability dG unfold from chymotrypsin proteolysis; higher = more stable
readout_name: folding stability dG unfold (kcal/mol)

SAGGSAGGSAMPGQKVRLTDELKKAGLEIEEAEVVEVDGKLYIRVNGKIIEIDADAIEEIEPSAGGSAGGSA [r18_445_TrROS_Hall] : 1.43
SAGGSAGGGMPSITLLETVEEKLPGSRTRVTTLSYDPATGNLVVTTTTFASPGTSTTSTTVLPPSAGGSAGG [r6_745_JUSTAS] : 1.51
SAGGSAGGSAGGSKIRLKINMTEEELKELLKKLFPNAKVTRIERKKDGSIYVEIELEPESAGGSAGGSAGGS [r4_95_TrROS_Hall] : 3.23
SAGGSAGKPVLVRVKLRLEFPGTGELAEAEVVVEADSIEDALDRVLKELTLPDFKAEVLDVKAIPLSAGGSA [r2_320_TrMRF] : 2.03
